target: UniProtKB P21447; test: in vitro; conditions: mouse, pH 7.4
EXPERIMENTAL_READOUT: Km
The answer consists of two parts: a number and, after it, its unit.

Req: If you can, please state the reported Km value of C[C@]12CC[C@H](O)C[C@H]1CC[C@@H]1[C@@H]2CC[C@]2(C)[C@@H](C3=CC(=O)OC3)CC[C@]12O .
Resp: 67.6 µM

* * *

target: P-glycoprotein (wild-type mouse Pgp, MDR3) (Mus musculus, UniProt P21447); experiment: in vitro; conditions: mouse, pH 7.4
Sequence (P21447 whole entry): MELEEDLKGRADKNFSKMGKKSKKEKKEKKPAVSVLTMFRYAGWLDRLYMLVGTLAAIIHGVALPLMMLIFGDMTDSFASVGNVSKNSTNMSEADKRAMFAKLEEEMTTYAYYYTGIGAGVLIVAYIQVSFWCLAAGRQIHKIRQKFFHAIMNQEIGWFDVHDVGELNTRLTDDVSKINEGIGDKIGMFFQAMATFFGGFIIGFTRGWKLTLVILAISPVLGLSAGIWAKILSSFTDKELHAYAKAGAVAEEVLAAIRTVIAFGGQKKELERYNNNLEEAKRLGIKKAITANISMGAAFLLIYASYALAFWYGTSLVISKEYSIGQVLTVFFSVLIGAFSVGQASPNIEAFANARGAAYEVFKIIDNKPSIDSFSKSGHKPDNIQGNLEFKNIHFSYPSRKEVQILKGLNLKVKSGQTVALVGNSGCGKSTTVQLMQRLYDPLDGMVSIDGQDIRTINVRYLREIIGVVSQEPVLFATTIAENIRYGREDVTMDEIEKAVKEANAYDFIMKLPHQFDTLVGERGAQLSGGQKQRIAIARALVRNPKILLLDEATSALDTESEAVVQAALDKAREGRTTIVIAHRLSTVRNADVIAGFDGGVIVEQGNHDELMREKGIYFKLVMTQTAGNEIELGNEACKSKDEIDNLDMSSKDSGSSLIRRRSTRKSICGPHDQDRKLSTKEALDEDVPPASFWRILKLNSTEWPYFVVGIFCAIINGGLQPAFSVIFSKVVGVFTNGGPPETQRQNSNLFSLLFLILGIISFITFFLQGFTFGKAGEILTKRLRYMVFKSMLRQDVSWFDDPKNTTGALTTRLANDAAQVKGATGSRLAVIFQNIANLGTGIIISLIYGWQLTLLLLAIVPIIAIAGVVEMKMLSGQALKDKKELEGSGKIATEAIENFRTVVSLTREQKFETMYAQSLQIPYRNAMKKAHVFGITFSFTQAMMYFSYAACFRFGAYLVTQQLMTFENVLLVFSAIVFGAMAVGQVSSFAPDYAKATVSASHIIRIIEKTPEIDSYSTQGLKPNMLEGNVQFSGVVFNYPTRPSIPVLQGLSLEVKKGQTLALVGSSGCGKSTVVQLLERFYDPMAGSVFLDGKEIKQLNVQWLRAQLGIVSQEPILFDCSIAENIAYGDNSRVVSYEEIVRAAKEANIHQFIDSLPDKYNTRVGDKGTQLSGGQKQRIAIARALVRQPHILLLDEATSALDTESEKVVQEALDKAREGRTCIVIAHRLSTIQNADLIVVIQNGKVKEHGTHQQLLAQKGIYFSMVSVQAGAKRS
EXPERIMENTAL_READOUT: Kd (µM)
Numbers only, in µM.

Req: If you can, please state the reported Kd value of C[C@]12CC[C@H](O)C[C@H]1CC[C@@H]1[C@@H]2C[C@@H](O)[C@]2(C)[C@@H](C3=CC(=O)OC3)CC[C@]12O [Digoxigenin] .
Resp: 10.2
